Kd data for eukaryotic translation initiation factor 4E (eIF4E) (Mus musculus) follow.
# number only, unit nM dropped from output

Some entries whose results are on file:
# compound, scale.unit, Kd
data = [
    ("Nc1nc(O)c2c(n1)n([C@@H]1O[C@H](COP(=O)(O)OP(=O)([O-])OP(=O)(O)OC[C@H]3O[C@@H](n4cnc5c(=O)[nH]c(N)nc54)[C@H](O)[C@@H]3O)[C@@H](O)[C@H]1O)c[n+]2Cc1cccc2ccccc12", "nM", 3040),
    ("Cc1ccc(C[n+]2cn([C@@H]3O[C@H](COP(=O)(O)OP(=O)([O-])OP(=O)(O)OC[C@H]4O[C@@H](n5cnc6c(=O)[nH]c(N)nc65)[C@H](O)[C@@H]4O)[C@@H](O)[C@H]3O)c3nc(N)nc(O)c32)cc1", "nM", 482),
    ("Nc1nc(O)c2c(n1)n([C@@H]1O[C@H](COP(=O)(O)OP(=O)([O-])OP(=O)(O)OC[C@H]3O[C@@H](n4cnc5c(=O)[nH]c(N)nc54)[C@H](O)[C@@H]3O)[C@@H](O)[C@H]1O)c[n+]2Cc1ccc(F)cc1", "nM", 261),
]

// next entry
Task: Hello, I am looking for reported Kd with eukaryotic translation initiation factor 4E (eIF4E) (Mus musculus) for CC(C)c1ccc(C[n+]2cn([C@@H]3O[C@H](COP(=O)(O)OP(=O)([O-])OP(=O)(O)OC[C@H]4O[C@@H](n5cnc6c(=O)[nH]c(N)nc65)[C@H](O)[C@@H]4O)[C@@H](O)[C@H]3O)c3nc(N)nc(O)c32)cc1 . Could you help?
Result: 534

====

Each item that follows carries a reported EC50.
- experimental.system: eIF4E (Mus musculus, UniProt P63073)
- Sequence (P63073 whole entry): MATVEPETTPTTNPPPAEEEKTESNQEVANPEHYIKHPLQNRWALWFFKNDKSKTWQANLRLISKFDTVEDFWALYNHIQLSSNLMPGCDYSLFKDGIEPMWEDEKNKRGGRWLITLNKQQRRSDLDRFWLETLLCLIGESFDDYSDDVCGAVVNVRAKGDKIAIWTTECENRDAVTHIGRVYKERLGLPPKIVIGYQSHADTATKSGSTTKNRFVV
- protocol.details: fluorescence anisotropy (FA) competition assay with eIF4E
- condition.details: Table S2; 25 °C, probe m^7GTP-triazol-FAM 10 nM, eIF4E 100 nM
# number only, unit nM dropped from output

Some entries whose results are on file:
# compound, EC50 / nM
records = [
    ("Nc1nc(O)c2c(n1)n([C@@H]1O[C@H](COP(=O)(O)OP(=O)([O-])OP(=O)(O)OC[C@H]3O[C@@H](n4cnc5c(=O)[nH]c(N)nc54)[C@H](O)[C@@H]3O)[C@@H](O)[C@H]1O)c[n+]2Cc1ccc(Cl)cc1", 340),
    ("Cc1ccc(C[n+]2cn([C@@H]3O[C@H](COP(=O)(O)OP(=O)([O-])OP(=O)(O)OC[C@H]4O[C@@H](n5cnc6c(=O)[nH]c(N)nc65)[C@H](O)[C@@H]4O)[C@@H](O)[C@H]3O)c3nc(N)nc(O)c32)cc1", 860),
]

// next entry
Task: Tell me the measured EC50 of Nc1nc(O)c2c(n1)n([C@@H]1O[C@H](COP(=O)(O)OP(=O)([O-])OP(=O)(O)OC[C@H]3O[C@@H](n4cnc5c(=O)[nH]c(N)nc54)[C@H](O)[C@@H]3O)[C@@H](O)[C@H]1O)c[n+]2Cc1ccc(Br)cc1 , please.
Result: 210

====

- experimental.system: UniProt:Q96C86
- Sequence (Q96C86 whole entry): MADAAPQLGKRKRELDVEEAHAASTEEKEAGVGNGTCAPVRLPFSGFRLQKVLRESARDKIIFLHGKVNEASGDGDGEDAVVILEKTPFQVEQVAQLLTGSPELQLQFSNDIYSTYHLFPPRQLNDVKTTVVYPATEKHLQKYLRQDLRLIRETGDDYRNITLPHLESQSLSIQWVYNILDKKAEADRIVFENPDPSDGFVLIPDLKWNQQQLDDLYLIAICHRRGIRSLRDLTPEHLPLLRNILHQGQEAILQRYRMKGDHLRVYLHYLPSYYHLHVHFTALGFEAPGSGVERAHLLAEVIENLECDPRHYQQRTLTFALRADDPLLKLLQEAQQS
- Assay type: in vitro ADME
- condition.details: 100 μM compound, 20 nM hDcpS, 37 °C, 1 h
Each item that follows carries a reported hDcpS Assay: fraction of the cap remaining after 1 h incubation with DcpS.
I only need the number, thanks.

# compound, reported
records = [
    ("Nc1nc(O)c2c(n1)n([C@@H]1O[C@H](COP(=O)(O)OP(=O)([O-])OP(=O)(O)OC[C@H]3O[C@@H](n4cnc5c(=O)[nH]c(N)nc54)[C@H](O)[C@@H]3O)[C@@H](O)[C@H]1O)c[n+]2Cc1ccc(C(=O)O)cc1", 0.93),
    ("Nc1nc(O)c2c(n1)n([C@@H]1O[C@H](COP(=O)(O)OP(=O)([O-])OP(=O)(O)OC[C@H]3O[C@@H](n4cnc5c(=O)[nH]c(N)nc54)[C@H](O)[C@@H]3O)[C@@H](O)[C@H]1O)c[n+]2Cc1ccc(F)cc1F", 0.70),
    ("Nc1nc(O)c2c(n1)n([C@@H]1O[C@H](COP(=O)(O)OP(=O)([O-])OP(=O)(O)OC[C@H]3O[C@@H](n4cnc5c(=O)[nH]c(N)nc54)[C@H](O)[C@@H]3O)[C@@H](O)[C@H]1O)c[n+]2Cc1ccccc1", 0.51),
]

Task: Hello, I am looking for reported hDcpS Assay: fraction of the cap remaining after 1 h incubation with DcpS with UniProt:Q96C86 for CO[C@@H]1[C@H](O)[C@@H](COP(=O)(O)OP(=O)([O-])OP(=O)(O)OC[C@H]2O[C@@H](n3cnc4c(=O)[nH]c(N)nc43)[C@H](O)[C@@H]2O)O[C@H]1n1c[n+](Cc2ccccc2)c2c(O)nc(N)nc21 . Could you help?
Result: 0.97

Task: Hello, I am looking for reported hDcpS Assay: fraction of the cap remaining after 1 h incubation with DcpS with UniProt:Q96C86 for Cc1cccc(C[n+]2cn([C@@H]3O[C@H](COP(=O)(O)OP(=O)([O-])OP(=O)(O)OC[C@H]4O[C@@H](n5cnc6c(=O)[nH]c(N)nc65)[C@H](O)[C@@H]4O)[C@@H](O)[C@H]3O)c3nc(N)nc(O)c32)c1 . Could you help?
Result: 0.84

Task: Hello, I am looking for reported hDcpS Assay: fraction of the cap remaining after 1 h incubation with DcpS with UniProt:Q96C86 for Nc1nc(O)c2c(n1)n([C@@H]1O[C@H](COP(=O)(O)OP(=O)([O-])OP(=O)(O)OC[C@H]3O[C@@H](n4cnc5c(=O)[nH]c(N)nc54)[C@H](O)[C@@H]3O)[C@@H](O)[C@H]1O)c[n+]2Cc1ccc(C(F)(F)F)cc1 . Could you help?
Result: 0.87

Task: Hello, I am looking for reported hDcpS Assay: fraction of the cap remaining after 1 h incubation with DcpS with UniProt:Q96C86 for Nc1nc(O)c2c(n1)n([C@@H]1O[C@H](COP(=O)(O)OP(=O)([O-])OP(=O)(O)OC[C@H]3O[C@@H](n4cnc5c(=O)[nH]c(N)nc54)[C@H](O)[C@@H]3O)[C@@H](O)[C@H]1O)c[n+]2Cc1cccc2ccccc12 . Could you help?
Result: 0.97

Task: Hello, I am looking for reported hDcpS Assay: fraction of the cap remaining after 1 h incubation with DcpS with UniProt:Q96C86 for CC(C)c1ccc(C[n+]2cn([C@@H]3O[C@H](COP(=O)(O)OP(=O)([O-])OP(=O)(O)OC[C@H]4O[C@@H](n5cnc6c(=O)[nH]c(N)nc65)[C@H](O)[C@@H]4O)[C@@H](O)[C@H]3O)c3nc(N)nc(O)c32)cc1 . Could you help?
Result: 0.94

Task: Hello, I am looking for reported hDcpS Assay: fraction of the cap remaining after 1 h incubation with DcpS with UniProt:Q96C86 for Cc1ccccc1C[n+]1cn([C@@H]2O[C@H](COP(=O)(O)OP(=O)([O-])OP(=O)(O)OC[C@H]3O[C@@H](n4cnc5c(=O)[nH]c(N)nc54)[C@H](O)[C@@H]3O)[C@@H](O)[C@H]2O)c2nc(N)nc(O)c21 . Could you help?
Result: 0.88

Task: Hello, I am looking for reported hDcpS Assay: fraction of the cap remaining after 1 h incubation with DcpS with UniProt:Q96C86 for Cc1ccc(C[n+]2cn([C@@H]3O[C@H](COP(=O)(O)OP(=O)([O-])OP(=O)(O)OC[C@H]4O[C@@H](n5cnc6c(=O)[nH]c(N)nc65)[C@H](O)[C@@H]4O)[C@@H](O)[C@H]3O)c3nc(N)nc(O)c32)cc1 . Could you help?
Result: 0.53
